# credit: PubChem BioAssay (NCI)

- Test system: MDA-MB-468 breast
- assay.procedure: NCI tumour cell line growth inhibition, 48 h
value.kind: TGI (nM)

1) C=CC(=O)Nc1cc(Nc2nccc(-c3cn(C)c4ccccc34)n2)c(OC)cc1N(C)CCN(C)C
332
2) CNC(=O)c1cc(Oc2ccc3nc(NC(=O)c4ccc(CN5CCCN(C)CC5)c(C(F)(F)F)c4)sc3c2)ccn1
2590
3) COCCn1cc(-c2nc(-c3cc4cccnc4[nH]3)cs2)c2cc(OC)ccc21
192
4) COc1ccc2ncnc(Nc3ccc(OCc4ccccc4)cc3)c2c1
9080
5) C#CC(=O)N(c1ccc(OC)cc1OC)C(C(=O)NCC(=O)OCC)c1cccs1 (stereo unspecified)
1170
6) CN1CCN(c2ccc(Nc3ncc(Cl)c(NC[C@@H]4CCCO4)n3)cc2)CC1
6640
7) NC(=S)N/N=C\c1nccc2c(C(F)(F)F)cccc12
612

====

- System: MDA-MB-468 breast
- assay.procedure: NCI tumour cell line growth inhibition, 48 h; in the data active = GI50 below about 0.43 µM; inactive = the rest
Labels: active, inactive

1. O=C1OCC2=C1C(c1cccc(Br)c1)c1cc3c(cc1N2CCO)OCCO3 (centres undefined)
active
2. CC(C)(C)[Si](C)(C)OC1[C@@H](O[Si](C)(C)C(C)(C)C)[C@@H](CNC(=O)NC(=O)C(F)(F)F)O[C@H]1n1cnc2c(NC(=O)Nc3ccccc3)ncnc21 (some centres undefined)
inactive
3. C#Cc1cccc(Nc2nc3cc([N+](=O)[O-])ccc3nc2Nc2ccc(O)cc2)c1
inactive
4. CCCCCCCCCCSC(=N)N (tested in a mixture with another compound)
inactive
5. COc1ccc(C(c2cc(OC)c(OC)c(OC)c2)n2cncn2)cc1O (centres undefined)
active
6. O=C1NC(=NCc2ccccc2)S/C1=C\c1ccc2ncccc2c1
inactive
7. COc1cc(/C=C2\CN(S(=O)(=O)c3ccc(C)cc3)C/C(=C\c3cc(CN4CCCC4)c(O)c(OC)c3)C2=O)cc(CN2CCCC2)c1O
inactive
8. CC[C@@H](c1ccc(O)c(O)c1)[C@@H](CC)c1ccc(O)c(O)c1
inactive
9. COc1ccc(Cn2c(Br)c3c(c2Br)-c2nc(N)sc2CC3)cc1
inactive

====

Reported values of TGI for individual entries
- Tested on: MDA-MB-468 breast
- assay.procedure: NCI tumour cell line growth inhibition, 48 h
value.kind: TGI

1) NCCNCCNCCN
> 100 µM
2) COc1c2ccccc2c(OC)c2[nH]c(=O)ccc12
> 91.7 µM
3) Cc1ccc(NC2=C3CCCCC3OC2=O)cc1 (centres undefined)
> 100 µM
4) c1ccc(Nc2ncc(-c3ccccc3)o2)cc1
> 25 µM
